Target: T1, LGP2 RD N583D (human, UniProt Q96C10 537-678, N583D)
T1 sequence: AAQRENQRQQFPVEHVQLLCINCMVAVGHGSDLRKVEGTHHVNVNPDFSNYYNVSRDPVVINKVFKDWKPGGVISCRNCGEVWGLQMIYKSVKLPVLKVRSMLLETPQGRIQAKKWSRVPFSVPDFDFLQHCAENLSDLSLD
Assay: fluorescence anisotropy
measurement.name: pKd
By convention, pKd is the negative base-10 log of a molar concentration.

**Q:** Query: pKd; subject: 25 bp dsRNA (dsRNA) RNA 1: GCUUGUCGGGAGCGCCACCCUCUGC RNA 2: GCAGAGGGUGGCGCUCCCGACAAGC
**A:** 7.42
